The following binders are listed with their measured IC50 values.
- Experimental System: T1, TSLP-His (human, UniProt Q969D9 29-159, limits assumed)
- T1 construct: also called his-tagged TSLP; not shown: His-tag
- T1 sequence (Q969D9 29-159 R127A/R130S limits assumed): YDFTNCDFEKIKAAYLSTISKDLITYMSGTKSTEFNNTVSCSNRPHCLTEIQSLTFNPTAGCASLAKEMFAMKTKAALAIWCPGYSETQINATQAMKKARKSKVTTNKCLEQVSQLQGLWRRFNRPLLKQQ
- Assay Method Text: HTRF competition: blocking of TSLP-his binding to HEK293-Flag-hTSLPR-IL7Ra cells, IgG1
Please give a number only; it is taken to be in µg/mL.

Consider the reported IC50 for these binders:
Binder	Unit Abbreviation	Data Value
TSLP-02 (antibody, V domains shown, also called parent antibody TSLP-02) VH: QVQLVQSGAEVKKPGSSVKVSCKASGFTFGSYGINWVRQAPGQGLEWLGVIVPLVGVTIYAEKFQGRVTITADTSTSTAYMELSSLRSEDTAVYYCARGQEYFYWYFDLWGQGTLVTVSS VL: QSALTQPPSASGSPGQSVTISCSGSSSDIGGYNRVSWYQQHPGKAPKLMIYDVSKRPSGVPDRFSGSKSGNTASLTVSGLQAEDEADYYCSSYAGTDTFILFGGGTKLTVL	µg/mL	0.229
TSLP-0401 (antibody, V domains shown) V domain 1: QEQLVQSGDEVKKPGASVKVSCKSSGFTFGSYAISWVRQAPGQGLEWMGMIIPLLGVTDYAEKFQGRVTITADPSTTTTSMELSSLRSEDTAVYYCARGGTNYLYWYFDLWGPGTPITVSS V domain 2: QSAPIQPRSVSGSPGQSVTISCTGTSSDIGGYNRVSWYQQHPGKAPKLMIYEVSKRPSGVSDRFSGSKSGNTASLTISGLQAEDEADYYCSAYAGTDTFVLFGGGTQLTIV	µg/mL	0.333

Next binder, IC50 to be filled in.
IC50 reading for TSLP-0203 (antibody, V domains shown) VH: QVQLVQSGAEVKKPGSSVKVSCKASGFTFGSYGINWVRQAPGQGLEWLGVIVPLVGVTIYAEKFQGRVTITADTSTSTAYMELSSLRSEDTAVYYCARGQEYFYWYFDLWGQGTLVTVSS VL: QSALTQPPSASGSPGQSVTISCTGTSSDIGGYDRVSWYQQHPGKAPKLMIYGVSKRPSGVPDRFSGSKSGNTASLTVSGLQAEDEADYYCSSYASGHTFGLFGGGTKLTVL : 0.383
